- target of assay: fatty acid synthase (FASN) in colon cancer cells HCT116 (Homo sapiens, UniProt P49327)
- Construct: endogenous in cells; host or cells: HCT116 colon cancer cells
- Sequence (P49327 whole entry): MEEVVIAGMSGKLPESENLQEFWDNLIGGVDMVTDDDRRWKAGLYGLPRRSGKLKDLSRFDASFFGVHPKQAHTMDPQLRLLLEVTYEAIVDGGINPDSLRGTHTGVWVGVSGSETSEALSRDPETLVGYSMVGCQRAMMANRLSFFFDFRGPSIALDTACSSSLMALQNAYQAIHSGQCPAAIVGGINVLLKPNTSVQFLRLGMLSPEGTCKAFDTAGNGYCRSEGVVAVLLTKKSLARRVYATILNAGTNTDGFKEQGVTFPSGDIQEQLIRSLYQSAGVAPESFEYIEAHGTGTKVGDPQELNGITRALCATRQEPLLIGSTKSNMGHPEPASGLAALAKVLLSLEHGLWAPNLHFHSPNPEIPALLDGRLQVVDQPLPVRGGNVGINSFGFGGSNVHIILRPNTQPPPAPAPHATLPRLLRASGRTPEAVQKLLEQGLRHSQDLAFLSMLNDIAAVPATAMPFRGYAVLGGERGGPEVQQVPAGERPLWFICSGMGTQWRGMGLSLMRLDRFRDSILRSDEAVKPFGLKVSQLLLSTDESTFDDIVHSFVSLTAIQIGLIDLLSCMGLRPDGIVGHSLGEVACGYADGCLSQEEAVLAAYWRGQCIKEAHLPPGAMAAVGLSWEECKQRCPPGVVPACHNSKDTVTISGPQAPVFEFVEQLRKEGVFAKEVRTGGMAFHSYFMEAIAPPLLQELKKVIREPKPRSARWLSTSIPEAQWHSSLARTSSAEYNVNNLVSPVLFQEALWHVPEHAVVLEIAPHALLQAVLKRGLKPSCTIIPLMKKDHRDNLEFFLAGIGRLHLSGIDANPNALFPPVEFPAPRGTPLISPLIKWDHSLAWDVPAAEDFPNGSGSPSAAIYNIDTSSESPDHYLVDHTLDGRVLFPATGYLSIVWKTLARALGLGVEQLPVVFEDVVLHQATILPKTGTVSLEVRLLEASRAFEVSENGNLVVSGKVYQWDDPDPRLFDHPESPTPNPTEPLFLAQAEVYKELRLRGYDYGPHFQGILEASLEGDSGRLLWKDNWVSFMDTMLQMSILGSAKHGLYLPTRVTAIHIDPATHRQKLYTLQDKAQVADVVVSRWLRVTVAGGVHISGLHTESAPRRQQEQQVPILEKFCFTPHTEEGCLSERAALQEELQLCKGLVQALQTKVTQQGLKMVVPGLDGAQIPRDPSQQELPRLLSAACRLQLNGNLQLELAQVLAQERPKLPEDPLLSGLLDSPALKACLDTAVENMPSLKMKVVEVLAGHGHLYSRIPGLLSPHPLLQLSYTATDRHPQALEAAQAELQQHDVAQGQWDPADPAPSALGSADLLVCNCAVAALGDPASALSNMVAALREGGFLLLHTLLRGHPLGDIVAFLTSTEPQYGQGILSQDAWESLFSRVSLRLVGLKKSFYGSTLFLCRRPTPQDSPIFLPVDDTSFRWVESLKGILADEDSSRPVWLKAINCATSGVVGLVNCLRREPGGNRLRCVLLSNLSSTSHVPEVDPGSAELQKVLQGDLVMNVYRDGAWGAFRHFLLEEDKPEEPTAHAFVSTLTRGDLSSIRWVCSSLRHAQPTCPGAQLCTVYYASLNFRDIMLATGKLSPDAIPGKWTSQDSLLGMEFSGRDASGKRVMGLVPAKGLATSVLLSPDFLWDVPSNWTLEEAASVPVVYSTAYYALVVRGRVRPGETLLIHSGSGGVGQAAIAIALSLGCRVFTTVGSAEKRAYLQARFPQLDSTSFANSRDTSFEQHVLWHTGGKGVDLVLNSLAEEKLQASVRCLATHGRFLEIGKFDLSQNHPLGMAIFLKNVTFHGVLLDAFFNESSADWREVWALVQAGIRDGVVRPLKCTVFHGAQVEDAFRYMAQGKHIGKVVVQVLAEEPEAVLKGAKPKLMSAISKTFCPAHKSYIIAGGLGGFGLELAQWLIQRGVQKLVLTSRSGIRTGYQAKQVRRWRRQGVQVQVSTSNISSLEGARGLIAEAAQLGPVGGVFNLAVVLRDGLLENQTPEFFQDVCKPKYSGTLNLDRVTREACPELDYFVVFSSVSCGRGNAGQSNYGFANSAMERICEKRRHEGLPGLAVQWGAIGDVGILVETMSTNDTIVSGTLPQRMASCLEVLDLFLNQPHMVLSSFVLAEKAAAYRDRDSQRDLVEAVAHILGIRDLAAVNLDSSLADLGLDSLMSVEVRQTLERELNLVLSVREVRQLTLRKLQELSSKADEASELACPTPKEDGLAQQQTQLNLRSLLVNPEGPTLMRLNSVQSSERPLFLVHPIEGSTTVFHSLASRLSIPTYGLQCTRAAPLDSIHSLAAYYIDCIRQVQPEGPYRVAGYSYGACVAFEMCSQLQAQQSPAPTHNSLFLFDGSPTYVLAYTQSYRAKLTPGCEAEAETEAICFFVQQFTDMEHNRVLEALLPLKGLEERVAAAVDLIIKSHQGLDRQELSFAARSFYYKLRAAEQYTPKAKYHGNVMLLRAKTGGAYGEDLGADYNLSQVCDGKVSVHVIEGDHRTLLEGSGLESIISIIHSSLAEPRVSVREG
- protocol description: FASN enzyme activity detection in treated HCT116 cells (NADPH absorbance at 340 nm)
- Type: cell-based
- condition label: HCT-116, 4 hours of incubation, read-out: FASN enzyme activity inhibition rate (%)
measured endpoint: inhibition at 20 µM (%)
Numbers only, in %.

# batch size: 6; output inhibition at 20 µM per entry
1. CCOC(=O)CCCC(=O)Nc1ccc(Br)cc1 [Intermediate 2]
2. O=C(CCC(=O)Nc1ccccc1)/N=C/c1ccccc1
3. O=C(CCC(=O)Nc1ccccc1)/N=C/Cc1ccccc1
4. O=C(CCC(=O)Nc1ccccc1)NC(=O)c1ccccc1
5. O=C(CCCNC(=O)NCc1cc(Br)ccc1O)Nc1ccc(Br)cc1
6. COc1ccc(Br)cc1CNC(=O)NCCCC(=O)Nc1ccc(Br)cc1

Result:
1: 22.2; 2: 41.9; 3: 35.2; 4: 37.7; 5: 41.2; 6: 30.7

Hi! Can you tell me inhibition at 20 µM for each of these compounds?
1. O=C(CCCC(=O)Nc1ccc(Br)cc1)NNC(=O)c1cc(Br)ccc1O
2. O=C(CCCC(=O)Nc1ccc(Br)cc1)N/N=C/c1cc(Br)ccc1O
3. C/C=C/C/C=C/CCC(=O)[C@H]1O[C@H]1C(N)=O [Cerulenin, cerulenin, reference compound]

Result:
[49, 58.6, 21.3]

###

- System: prostate cancer cells PC-3
- protocol description: MTT tumor proliferation IC50, PC-3
- Type: cell-based
- condition label: 72 hours of incubation
Please respond with reported IC50 for every item in the list.
Numbers only, in nM.

Illustrative cases are given below, each with its answer.
>  <compound>
C/C=C/C/C=C/CCC(=O)[C@H]1O[C@H]1C(N)=O [Cerulenin, cerulenin, reference compound]

>  <readout unit>
nM

>  <IC50>
18

$$$$
>  <compound>
O=C(CCC(=O)Nc1ccccc1)/N=C/Cc1ccccc1

>  <readout unit>
nM

>  <IC50>
16

$$$$
>  <compound>
CCOC(=O)CCCC(=O)Nc1ccc(Br)cc1 [Intermediate 2]

>  <readout unit>
nM

>  <IC50>
18

$$$$
>  <compound>
O=C(CCC(=O)Nc1ccccc1)/N=C/c1ccccc1

>  <readout unit>
nM

>  <IC50>
15

$$$$
>  <compound>
O=C(CCCNC(=O)NCc1cc(Br)ccc1O)Nc1ccc(Br)cc1

>  <readout unit>
nM

>  <IC50>
14

$$$$
>  <compound>
O=C(CCCC(=O)Nc1ccc(Br)cc1)NNC(=O)c1cc(Br)ccc1O

>  <readout unit>
nM

>  <IC50>
11

$$$$
>  <compound>
O=C(CCC(=O)Nc1ccccc1)NC(=O)c1ccccc1

>  <readout unit>
nM

>  <IC50>
15

$$$$
>  <compound>
O=C(CCCC(=O)Nc1ccc(Br)cc1)N/N=C/c1cc(Br)ccc1O

>  <readout unit>
nM

>  <IC50>
9

$$$$

Problem: // returns reported IC50 for input COc1ccc(Br)cc1CNC(=O)NCCCC(=O)Nc1ccc(Br)cc1
Result: 16
